- Study System: Rhodopsin kinase GRK1 (Bos taurus, UniProt P28327)
- Assay Info: Inhibition of C-terminal hexahistidine tagged bovine GRK1 (535 residues) assessed as decrease in phosphorylation of light-activated bovine rod outer segments preincubated for 30 mins followed by ATP addition
Measure: IC50 (µM)

In [3]: df
Out[3]:
                         chemical_structure                              study_system  result
0  Fc1ccc([C@@H]2CCNC[C@H]2COc2ccc3c(c2)OCO3)cc1  Rhodopsin kinase GRK1 (Bos taurus, UniProt P28327)     316

====

- Study System: Rhodopsin kinase GRK1 (Bos taurus)
- Assay Info: Inhibition of C-terminal hexahistidine tagged bovine GRK1 (535 residues) assessed as decrease in phosphorylation of tubulin preincubated for 30 mins followed by ATP addition
pIC50: −log10 of the molar value.
Measure: pIC50

>>> df
                                   molecule  result
0  Fc1ccc([C@@H]2CCNC[C@H]2COc2ccc3c(c2)OCO3)cc1 [PAROXETINE]    3.80

====

- Study System: Rhodopsin kinase GRK1 (Bos taurus, UniProt P28327)
- Sequence (P28327 whole entry): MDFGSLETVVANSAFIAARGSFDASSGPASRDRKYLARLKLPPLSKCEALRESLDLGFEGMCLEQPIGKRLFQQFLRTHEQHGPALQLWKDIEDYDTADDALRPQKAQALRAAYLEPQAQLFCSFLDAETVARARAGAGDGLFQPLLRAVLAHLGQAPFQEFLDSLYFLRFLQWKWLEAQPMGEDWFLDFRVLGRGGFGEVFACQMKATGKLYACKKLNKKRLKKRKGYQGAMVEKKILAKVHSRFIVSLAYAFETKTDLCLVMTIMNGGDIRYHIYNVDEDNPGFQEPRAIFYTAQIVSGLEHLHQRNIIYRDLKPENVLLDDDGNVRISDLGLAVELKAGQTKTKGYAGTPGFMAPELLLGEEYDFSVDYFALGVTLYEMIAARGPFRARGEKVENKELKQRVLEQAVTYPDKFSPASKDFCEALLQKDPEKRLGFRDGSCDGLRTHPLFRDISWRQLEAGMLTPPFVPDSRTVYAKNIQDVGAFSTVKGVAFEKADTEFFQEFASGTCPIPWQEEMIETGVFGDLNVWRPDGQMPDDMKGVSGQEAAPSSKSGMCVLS
- Assay Info: Inhibition of bovine GRK1 (1 to 535 residues) assessed as decrease in phosphorylation of tubulin after 5 mins by SDS-PAGE analysis
pIC50: −log10 of the molar value.
Measure: pIC50

>>> print(df.to_string())
                                   molecule  measure  result
0  CC1=C(C(=O)Nc2ccc3[nH]ncc3c2)C(c2ccc3ccccc3c2)CC(=O)N1 (stereo unspecified)    pIC50    3.10

====

- Study System: G protein-coupled receptor kinase 5 (Bos taurus, UniProt P43249)
- Sequence (P43249 whole entry): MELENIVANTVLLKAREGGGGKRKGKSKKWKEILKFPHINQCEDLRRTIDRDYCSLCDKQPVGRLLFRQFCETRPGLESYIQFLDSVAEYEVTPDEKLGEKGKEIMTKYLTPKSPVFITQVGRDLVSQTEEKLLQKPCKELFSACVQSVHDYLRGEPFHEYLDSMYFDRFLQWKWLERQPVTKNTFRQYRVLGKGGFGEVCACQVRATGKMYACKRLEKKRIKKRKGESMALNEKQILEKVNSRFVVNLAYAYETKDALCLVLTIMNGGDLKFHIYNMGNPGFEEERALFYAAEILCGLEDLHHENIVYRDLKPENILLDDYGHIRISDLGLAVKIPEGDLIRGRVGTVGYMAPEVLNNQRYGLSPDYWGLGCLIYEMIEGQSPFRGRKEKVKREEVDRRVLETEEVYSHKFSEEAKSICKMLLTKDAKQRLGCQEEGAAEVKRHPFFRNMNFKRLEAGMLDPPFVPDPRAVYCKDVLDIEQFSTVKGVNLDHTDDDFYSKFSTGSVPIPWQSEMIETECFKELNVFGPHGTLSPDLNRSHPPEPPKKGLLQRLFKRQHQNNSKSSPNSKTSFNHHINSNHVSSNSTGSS
- Assay Info: ChEBML_1612831
Measure: IC50 (µM)

>>> print(df.to_string())
                                   compound  measure  unit  result
0  CC1=C(C(=O)Nc2ccc3[nH]ncc3c2)C(c2ccc(Cl)c(Cl)c2)CC(=O)N1 (stereo unspecified)     IC50    µM    79.4
